test system: Fer (mouse); assay: phosphorylation enrichment, bacterial display (enrichment ratio); higher = better substrate or ligand; peptides without Tyr show the background;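 note: 11-residue human phosphosite peptides and single-mutation variants displayed on the E. coli surface, counted by deep sequencing, each peptide's frequency after selection divided by its frequency in the unselected input library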;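 note: frequency after pTyr selection over input frequency; kinase dosed for 20-30% of maximal phosphorylation in three min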

[
  {
    "Sequence String": "SIKDKYVTAFY [KCNH2_Y611_L615F]",
    "phosphorylation enrichment": 0.401
  },
  {
    "Sequence String": "QKMADYSNKLY [PDPR_Y104]",
    "phosphorylation enrichment": 0.435
  },
  {
    "Sequence String": "DRLAVYIDRVS [LMNA_Y45_R50S]",
    "phosphorylation enrichment": 0.397
  },
  {
    "Sequence String": "KDKLPYLYDDP [GPX2_Y125_P126L]",
    "phosphorylation enrichment": 0.77
  },
  {
    "Sequence String": "LSVEIHDRREY [ITGB7_Y753_Y753H]",
    "phosphorylation enrichment": 0.473
  },
  {
    "Sequence String": "LATINYPFEKG [NDUFS8_Y84_P79L]",
    "phosphorylation enrichment": 0.5
  },
  {
    "Sequence String": "FHRQLYHKCTH [F12_Y58_YF]",
    "phosphorylation enrichment": 0.398
  },
  {
    "Sequence String": "PEADKYRLTFA [FGG_Y300_YF]",
    "phosphorylation enrichment": 0.546
  },
  {
    "Sequence String": "YSDPSYVKQME [CDC5L_Y464]",
    "phosphorylation enrichment": 0.409
  },
  {
    "Sequence String": "HLVSEYQQFQD [TUBB3_Y422_D417H_YF]",
    "phosphorylation enrichment": 0.338
  },
  {
    "Sequence String": "RLDRSYSYSYS [PEAR1_Y890]",
    "phosphorylation enrichment": 0.467
  },
  {
    "Sequence String": "MANFMYKAGPS [MAML2_Y515_YF]",
    "phosphorylation enrichment": 0.386
  },
  {
    "Sequence String": "AGLEEYSAMRD [HRAS_Y64_Q61L]",
    "phosphorylation enrichment": 0.495
  },
  {
    "Sequence String": "LNAGAYSKVVE [PPT1_Y172_Q177E]",
    "phosphorylation enrichment": 0.551
  }
]

====

target: SHP2-C SH2; experiment: SH2 binding enrichment of the phosphorylated peptide, bacterial display (enrichment ratio); higher = better substrate or ligand; peptides without Tyr show the background;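 note: peptide library displayed on the E. coli surface as eCPX fusions, selected cells deep-sequenced, score is each peptide's frequency after selection divided by its frequency in the input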
Quick rule for you: SH2 binding enrichment at 0.8 or higher means met, lower means not met.

[
  {
    "Sequence String": "FLRKEYGGLNV [CBR3_Y81]",
    "Label Class": "not met"
  },
  {
    "Sequence String": "EEDPEYKKKFR [FAM161A_Y278]",
    "Label Class": "met"
  },
  {
    "Sequence String": "LATINYPFEKG [NDUFS8_Y84_P79L]",
    "Label Class": "not met"
  },
  {
    "Sequence String": "FADIAYNFRQG [PAH_Y166_H170Q_YF]",
    "Label Class": "not met"
  },
  {
    "Sequence String": "LGKLTYPVGFW [NTHL1_Y177_I176T]",
    "Label Class": "met"
  },
  {
    "Sequence String": "RAIELYNDKEK [OTULIN_Y244]",
    "Label Class": "not met"
  },
  {
    "Sequence String": "GHEEFYSTHPH [LRRK2_Y1402_R1398H]",
    "Label Class": "met"
  },
  {
    "Sequence String": "RMETAYGPSVT [MXRA5_Y2717_E2716A]",
    "Label Class": "met"
  },
  {
    "Sequence String": "TSFSGYRCHRH [NKAPL_Y94_Y96C_YF]",
    "Label Class": "met"
  },
  {
    "Sequence String": "MARDIYRASFF [ALK_Y1278_YF]",
    "Label Class": "not met"
  },
  {
    "Sequence String": "NRLTDYYEPLL [BBS10_Y536]",
    "Label Class": "not met"
  },
  {
    "Sequence String": "IKETHYMVDRC",
    "Label Class": "not met"
  },
  {
    "Sequence String": "EPDSLYGCGRG [ATM_Y2019_G2023R]",
    "Label Class": "met"
  },
  {
    "Sequence String": "GINDDHGQLKN [NBN_Y679_Y679H]",
    "Label Class": "met"
  },
  {
    "Sequence String": "GLIPAYHWVIM [NMNAT1_Y64_R66W]",
    "Label Class": "not met"
  },
  {
    "Sequence String": "HLVLNYGVCIC [JAK2_Y613_V617I]",
    "Label Class": "not met"
  },
  {
    "Sequence String": "KDQGGYTMHQD [MAPT_Y29]",
    "Label Class": "not met"
  },
  {
    "Sequence String": "QEGPEYWDQNT [HLA-A_Y83_E87N]",
    "Label Class": "not met"
  },
  {
    "Sequence String": "MGSFNYLGFAR [SPTLC2_Y178_YF]",
    "Label Class": "met"
  },
  {
    "Sequence String": "AGLEEYSAMRD [HRAS_Y64_Q61L]",
    "Label Class": "not met"
  },
  {
    "Sequence String": "FSQQTYFRVSN [ABCD1_Y180_YF]",
    "Label Class": "met"
  },
  {
    "Sequence String": "MTRDIYRASYY [ALK_Y1278_A1274T]",
    "Label Class": "not met"
  },
  {
    "Sequence String": "ILTLKYPIKHG [ACTA1_Y71_E74K]",
    "Label Class": "met"
  },
  {
    "Sequence String": "IVAEYYDNLPH [DEGS1_Y284_A280V]",
    "Label Class": "not met"
  },
  {
    "Sequence String": "LKLIQYHLIQQ [AKAP4_Y554_T557I]",
    "Label Class": "met"
  },
  {
    "Sequence String": "NVGGKYSYLKV [GRM3_Y478]",
    "Label Class": "met"
  },
  {
    "Sequence String": "MKGDYYRYLAE [YWHAG_Y131]",
    "Label Class": "not met"
  },
  {
    "Sequence String": "KSSDVYVSYDC [SORL1_Y136_Y141C]",
    "Label Class": "not met"
  },
  {
    "Sequence String": "RASQEYHIVKK [PDZD2_Y557_S552R]",
    "Label Class": "met"
  },
  {
    "Sequence String": "SEPDLYYDPRG [PKP1_Y160_C161Y]",
    "Label Class": "not met"
  },
  {
    "Sequence String": "DFAIVYGTIIL [GPR179_Y460_G455D]",
    "Label Class": "not met"
  },
  {
    "Sequence String": "KGNMYYENSYA [EGFR_Y113_R108K]",
    "Label Class": "met"
  },
  {
    "Sequence String": "IPGRYYETGSI [PAX2_Y73_L69P]",
    "Label Class": "not met"
  },
  {
    "Sequence String": "DPEATYTTSGG [EPHA2_Y772]",
    "Label Class": "not met"
  },
  {
    "Sequence String": "VATRWYRSPEP [CDKL5_Y177_L182P]",
    "Label Class": "not met"
  },
  {
    "Sequence String": "HGEAVYSRDCV [XPC_Y676_R671H]",
    "Label Class": "not met"
  },
  {
    "Sequence String": "KRISCYEASYQ [PFKFB3_Y194]",
    "Label Class": "not met"
  },
  {
    "Sequence String": "LSDGPYSNSFE [EPOR_Y485_P488S_YF]",
    "Label Class": "not met"
  },
  {
    "Sequence String": "ESMLRYEVFGG [STOX1_Y607_YF]",
    "Label Class": "not met"
  },
  {
    "Sequence String": "LITTLYISFLG [KCNQ1_Y267_G269S]",
    "Label Class": "not met"
  },
  {
    "Sequence String": "QSKGIYYVQLE [MGAT4B_Y262]",
    "Label Class": "met"
  },
  {
    "Sequence String": "PRDSGYSYETI [MAP1B_Y1921_S1917R]",
    "Label Class": "not met"
  },
  {
    "Sequence String": "GDKENYGLPQP [BUB1_Y538_N534D]",
    "Label Class": "not met"
  },
  {
    "Sequence String": "TEAGDYKLCFD [TMED1_Y103]",
    "Label Class": "not met"
  },
  {
    "Sequence String": "TEDPEYDVQSK [PTCHD3_Y335]",
    "Label Class": "met"
  },
  {
    "Sequence String": "RIVEIYSRSLQ [GCH1_Y175_R178S]",
    "Label Class": "not met"
  },
  {
    "Sequence String": "EKMWSYTKSAE [GRIA3_Y705_M706T]",
    "Label Class": "met"
  },
  {
    "Sequence String": "SRLSAYPALEG [CD5_Y465_H461R]",
    "Label Class": "not met"
  },
  {
    "Sequence String": "QKMADYSNKLY [PDPR_Y104]",
    "Label Class": "not met"
  },
  {
    "Sequence String": "PMWHPYKVDVT [TP53TG5_Y255]",
    "Label Class": "not met"
  },
  {
    "Sequence String": "QDEPTYARSSK [PEAK1_Y616_H611Q]",
    "Label Class": "not met"
  },
  {
    "Sequence String": "FCGFSYDDIPD [TMEM230_Y112_R108C_YF]",
    "Label Class": "not met"
  },
  {
    "Sequence String": "FLLTVYSIFSK [SGCE_Y38]",
    "Label Class": "met"
  },
  {
    "Sequence String": "FDDIAYIRKNL [PIK3CA_Y1021_T1025N]",
    "Label Class": "not met"
  }
]
